experimental_target: Wee1 kinase domain (Homo sapiens)
Construct: Wee1 kinase domain was purchased from Carna (catalog #05-177); purchased Carna 05-177
Sequence (P30291 299-569 limits assumed): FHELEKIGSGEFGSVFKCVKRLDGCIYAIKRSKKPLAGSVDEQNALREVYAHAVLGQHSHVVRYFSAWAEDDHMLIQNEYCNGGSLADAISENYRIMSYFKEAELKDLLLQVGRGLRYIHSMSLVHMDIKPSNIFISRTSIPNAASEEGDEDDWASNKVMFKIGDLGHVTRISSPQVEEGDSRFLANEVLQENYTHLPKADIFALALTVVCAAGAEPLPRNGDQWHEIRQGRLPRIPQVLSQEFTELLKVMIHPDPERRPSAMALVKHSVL
procedure_details: Wee1 Kinase Biochemical Assay (ADP-Glo)
experimental_conditions: class symbols; 1 nM Wee1 enzyme, 15 uM ATP, 4 hours at 25° C.
test_readout: IC50

Illustrative cases are given below, each with its answer.
CC1(C)C[C@H]2N(c3ccccn3)c3nc(Nc4ccc(N5CCN6CC[C@H]5C6)cc4)ncc3[C@@]2(C)CO1
< 10 nM
CN=[S@](C)(=O)c1cccc(N2c3nc(Nc4ccc(N5CC6(CN(C)C6)C5)cc4)ncc3[C@@]3(C)COC(C)(C)C[C@@H]23)n1
< 10 nM

Please fill in: IC50 reported for "CN1[C@@H]2C[C@H]1CN(c1ccc(Nc3ncc4c(n3)N(c3cccc(N5CCOC5=O)n3)[C@@H]3CC(C)(C)OC[C@]43C)cc1)C2" = < 10 nM

// IC50 value for CN1CCCN(c2ccc(Nc3ncc4c(n3)N(c3cccc(N=S(C)(C)=O)n3)[C@@H]3CC(C)(C)OC[C@]43C)cc2)CC1 (single isomer, unassigned) : < 10 nM

So for "CN1C[C@H]2C[C@@H]1CN2c1ccc(Nc2ncc3c(n2)N(c2cccc(N4CCCC4=O)n2)[C@H]2CC(C)(C)OC[C@@]32C)cc1" , the logged IC50 turned out to be 100 to 1000 nM

Quick note, IC50 for CC1(C)C[C@@H]2N(c3cccc(N4CCOC4=O)n3)c3nc(Nc4ccc(N5CCNCC5)cc4)ncc3[C@]2(C)CO1 (single isomer, unassigned) landed at 100 to 1000 nM

Data point: CNCc1cccc(N2c3nc(Nc4cnn(C)c4)ncc3[C@@]3(C)COC(C)(C)C[C@@H]23)n1 (single isomer, unassigned) ; IC50 = < 10 nM

compound "CN1C[C@@H]2CN(c3ccc(Nc4ncc5c(n4)N(c4cccc(N6CCCC6=O)n4)[C@@H]4CC(C)(C)OC[C@]54C)cc3)C[C@@H]2C1" , IC50 observed: < 10 nM

The recorded IC50 for entry CC1(C)C[C@H]2N(c3cccc(N=S(C)(C)=O)n3)c3nc(Nc4ccn(C5CCC5)c(=O)c4)ncc3[C@@]2(C)CO1 (single isomer, unassigned) equals < 10 nM

compound CN1CCN(c2ccc(Nc3ncc4c(n3)N(c3cccc(N5CCOC5=O)n3)[C@H]3CC(C)(C)OC[C@@]43C)cc2)CC1 (single isomer, unassigned) , IC50 observed: 100 to 1000 nM

Record "CC1(C)C[C@@H]2N(c3cccc(N4CCOC4=O)n3)c3nc(Nc4ccc([C@@H]5CNC[C@@H]5F)cc4)ncc3[C@]2(C)CO1" , field IC50: 10 to 100 nM

IC50 in this record for "CC1(C)C[C@@H]2N(c3cccc(N4CCOC4=O)n3)c3nc(Nc4ccc(O[C@@H]5CCNC5)cc4)ncc3[C@]2(C)CO1" : 10 to 100 nM
